tested on: Enterobacterales overproducing AmpC; experiment: Broth microdilution susceptibility of isolates overexpressing AmpC; type: cell-based; settings: Enterobacterales (36)
endpoint: CLSI %1 (%)
Quick reminder: number only, in %, skip the unit.

CLSI %1 measured on CO/N=C(\C(=O)N[C@@H]1C(=O)N2C(C(=O)O)=C(COC(N)=O)CS[C@H]12)c1ccco1 = 5.6

* * *

tested on: Enterobacterales overproducing AmpC; assay: Broth microdilution susceptibility of isolates overexpressing AmpC; assay type: cell-based; conditions: Enterobacterales (36)
endpoint: CLSI % R (%)
Quick note: give the figure in %, leave out the unit.

The recorded CLSI % R for CO/N=C(\C(=O)N[C@@H]1C(=O)N2C(C(=O)O)=C(COC(N)=O)CS[C@H]12)c1ccco1 [Cefuroxime] is 94.4

So, CN(C)c1cc(NC(=O)CNC(C)(C)C)c(O)c2c1C[C@H]1C[C@H]3[C@H](N(C)C)C(O)=C(C(N)=O)C(=O)[C@@]3(O)C(O)=C1C2=O [Tigecycline] ? Its CLSI % R was 0.0

Reported CLSI % R for C[C@H]1[C@H](NC(=O)/C(=N\OC(C)(C)C(=O)O)c2csc(N)n2)C(=O)N1S(=O)(=O)O [Aztreonam] was 54.3

* * *

system: Enterobacterales overproducing AmpC; assay: Broth microdilution susceptibility of isolates overexpressing AmpC; format: cell-based
endpoint: MIC90

Solved entries:
Reading of MIC90 for CO/N=C(\C(=O)N[C@@H]1C(=O)N2C(C(=O)O)=C(COC(N)=O)CS[C@H]12)c1ccco1 with Enterobacterales overproducing AmpC: > 64 µg/mL

The value of MIC90 recorded for C[C@@H](O)[C@H]1C(=O)N2C(C(=O)O)=C(SCCN=CN)C[C@H]12 when tested on Enterobacterales overproducing AmpC reads 0.5 µg/mL

Field MIC90 (system: Enterobacterales overproducing AmpC) for entry C[C@@H](O)[C@H]1C(=O)N2C(C(=O)O)=C(S[C@@H]3CN[C@H](C(=O)N(C)C)C3)[C@H](C)[C@H]12 = 0.12 µg/mL

Response field MIC90 (Enterobacterales overproducing AmpC) for item C[C@@H](O)[C@H]1C(=O)N2C(C(=O)O)=C(SC3CN(C4=NCCS4)C3)[C@H](C)[C@H]12 : 0.25 µg/mL

Field MIC90 (system: Enterobacterales overproducing AmpC) for entry CN(C)c1cc(NC(=O)CNC(C)(C)C)c(O)c2c1C[C@H]1C[C@H]3[C@H](N(C)C)C(O)=C(C(N)=O)C(=O)[C@@]3(O)C(O)=C1C2=O = 1 µg/mL

Others:
Sample CO/N=C(\C(=O)N[C@@H]1C(=O)N2C(C(=O)O)=C(CSc3nc(=O)c(=O)[nH]n3C)CS[C@H]12)c1csc(N)n1 , system: Enterobacterales overproducing AmpC. Its MIC90 is > 8 µg/mL

MIC90 value, target or system Enterobacterales overproducing AmpC, for CO/N=C(\C(=O)N[C@@H]1C(=O)N2C(C(=O)[O-])=C(C[N+]3(C)CCCC3)CS[C@H]12)c1csc(N)n1 [Cefepime] : 128 µg/mL

Given the molecule C[C@@H](O)[C@H]1C(=O)N2C(C(=O)O)=C(S[C@@H]3CN[C@H](C(=O)Nc4cccc(C(=O)O)c4)C3)[C@H](C)[C@H]12 and test system Enterobacterales overproducing AmpC, the measured MIC90 is 2 µg/mL

* * *

Entries and their CLSI %1 values follow.
system: Enterobacterales overproducing AmpC; test: Broth microdilution susceptibility of isolates overexpressing AmpC; format: cell-based; conditions: Enterobacterales (36)
API: value field is a number in %; no unit string.

Recorded CLSI %1, per entry:
Lab note: C[C@@H](O)[C@H]1C(=O)N2C(C(=O)O)=C(S[C@@H]3CN[C@H](C(=O)N(C)C)C3)[C@H](C)[C@H]12 gave CLSI %1 of 0.0

What the record says about CN(C)c1cc(NC(=O)CNC(C)(C)C)c(O)c2c1C[C@H]1C[C@H]3[C@H](N(C)C)C(O)=C(C(N)=O)C(=O)[C@@]3(O)C(O)=C1C2=O : CLSI %1 is 5.6

Now let's try a different one.
Looking up C[C@@H](O)[C@H]1C(=O)N2C(C(=O)O)=C(SCCN=CN)C[C@H]12 , I see its CLSI %1 listed as 0.0

* * *

# MIC90 annotations
system: Enterobacterales overproducing AmpC; test: Broth microdilution susceptibility of isolates overexpressing AmpC; format: cell-based; settings: Enterobacterales (36)
Express your answer in μ/ml, writing the number without its unit.

Reference set, count: 3
Notebook: C[C@@H](O)[C@H]1C(=O)N2C(C(=O)O)=C(SCCN=CN)C[C@H]12 , MIC90 read as 0.5

Note to self: MIC90 recorded for C[C@@H](O)[C@H]1C(=O)N2C(C(=O)O)=C(SC3CN(C4=NCCS4)C3)[C@H](C)[C@H]12 was 0.25

MIC90 measured on C[C@@H](O)[C@H]1C(=O)N2C(C(=O)O)=C(S[C@@H]3CN[C@H](C(=O)Nc4cccc(C(=O)O)c4)C3)[C@H](C)[C@H]12 = 2

Shifting focus to the molecule that follows.
Short answer for C[C@@H](O)[C@H]1C(=O)N2C(C(=O)O)=C(S[C@@H]3CN[C@H](C(=O)N(C)C)C3)[C@H](C)[C@H]12 : MIC90 was 0.12

* * *

system: Enterobacterales overproducing AmpC; assay: Broth microdilution susceptibility of isolates overexpressing AmpC; type: cell-based; conditions: Enterobacterales (36)
// reported CLSI %1 for each item listed
Answer shape: numeric part, then the unit.

Entry C[C@H]1[C@H](NC(=O)/C(=N\OC(C)(C)C(=O)O)c2csc(N)n2)C(=O)N1S(=O)(=O)O : CLSI %1 on Enterobacterales overproducing AmpC = 14.3%

Further cases:
Record CO/N=C(\C(=O)N[C@@H]1C(=O)N2C(C(=O)O)=C(CSc3nc(=O)c(=O)[nH]n3C)CS[C@H]12)c1csc(N)n1 / Enterobacterales overproducing AmpC, CLSI %1 recorded as 13.9%

Entry CC(C)(O/N=C(\C(=O)N[C@@H]1C(=O)N2C(C(=O)[O-])=C(C[n+]3ccccc3)CS[C@H]12)c1csc(N)n1)C(=O)O under Enterobacterales overproducing AmpC had CLSI %1 of 11.4%

Entry C[C@@H](O)[C@H]1C(=O)N2C(C(=O)O)=C(S[C@@H]3CN[C@H](C(=O)Nc4cccc(C(=O)O)c4)C3)[C@H](C)[C@H]12 , tested on Enterobacterales overproducing AmpC, has a reported CLSI %1 of 8.3%

Entry CN(C)[C@@H]1C(O)=C(C(N)=O)C(=O)[C@@]2(O)C(O)=C3C(=O)c4c(O)cccc4[C@@](C)(O)[C@H]3C[C@@H]12 under Enterobacterales overproducing AmpC had CLSI %1 of 5.6%

* * *

test system: Enterobacterales overproducing AmpC; assay: Broth microdilution susceptibility of isolates overexpressing AmpC; assay type: cell-based; conditions: Enterobacterales (36)
Measured CLSI % R, listed per entry.
Give your result in % as a bare value.

Log: Enterobacterales overproducing AmpC, compound CN(C)[C@@H]1C(O)=C(C(N)=O)C(=O)[C@@]2(O)C(O)=C3C(=O)c4c(O)cccc4[C@@](C)(O)[C@H]3C[C@@H]12 , CLSI % R = 44.4

New cases:
Bench note, Enterobacterales overproducing AmpC: C[C@@H](O)[C@H]1C(=O)N2C(C(=O)O)=C(SCCN=CN)C[C@H]12 , CLSI % R reads 0.0

* * *

tested on: Enterobacterales overproducing AmpC; test: Broth microdilution susceptibility of isolates overexpressing AmpC; format: cell-based; conditions: Enterobacterales (36)
endpoint: CLSI % R (%)
Just the number please, in %, no unit attached.

Past entries and their recorded results:
So, C[C@@H](O)[C@H]1C(=O)N2C(C(=O)O)=C(S[C@@H]3CN[C@H](C(=O)N(C)C)C3)[C@H](C)[C@H]12 ? Its CLSI % R was 0.0

Briefly, CLSI % R measured for C[C@@H](O)[C@H]1C(=O)N2C(C(=O)O)=C(S[C@@H]3CN[C@H](C(=O)Nc4cccc(C(=O)O)c4)C3)[C@H](C)[C@H]12 : 11.1

Measured CLSI % R of CC(C)(O/N=C(\C(=O)N[C@@H]1C(=O)N2C(C(=O)[O-])=C(C[n+]3ccccc3)CS[C@H]12)c1csc(N)n1)C(=O)O : 60.0

Now take the following molecule into account.
Reported CLSI % R for CO/N=C(\C(=O)N[C@@H]1C(=O)N2C(C(=O)O)=C(CSc3nc(=O)c(=O)[nH]n3C)CS[C@H]12)c1csc(N)n1 was 63.9

Data provenance is patent US12048691B2.
